experimentalProtocol: Diazepam (DIA) induced anterograde amnesia, passive avoidance test
Type: in vivo, NMRI mice
assayConditions: Mus musculus, po, 1 h; 10 mg/kg p.o., one hour before learning; diazepam 3 mg/kg i.p.; * = p < 0.05 vs diazepam control; read-out: Prevention %
Listed below: inhibition in vivo at 10 mg/kg values for each entry.
Just the number in %, nothing appended.

Look over these answered cases.
O=C1CC2(CC[N+](Cc3ccccc3)(Cc3ccccc3)CC2)Oc2ccccc21 [Compound 4611267]; 67
O=C1CC2(CCN(Cc3ccc([N+](=O)[O-])cc3)CC2)Oc2ccccc21 [Compound 4610350]; 29
O=C1CC2(CCN(Cc3ccc(Br)cc3)CC2)Oc2ccccc21 [Compound 4611109]; 0

Ask | Look up inhibition in vivo at 10 mg/kg: O=C1CC2(CCN(Cc3ccccc3)CC2)Oc2ccccc21 [Compound 4600592]
Reply | 92

Ask | Look up inhibition in vivo at 10 mg/kg: O=C1CC2(CCN(Cc3ccc(Cl)cc3)CC2)Oc2ccccc21 [Compound 4610351]
Reply | 176

Ask | Look up inhibition in vivo at 10 mg/kg: CC(C)(C)c1ccc(CN2CCC3(CC2)CC(=O)c2ccccc2O3)cc1 [Compound 4611266]
Reply | 105

Ask | Look up inhibition in vivo at 10 mg/kg: CCOC(=O)C1=C[C@]2(CC)CCCN3CCc4c(n1c1ccccc41)[C@@H]32 [Vinpocetine, ethyl apovincaminate, reference compound]
Reply | 123

Ask | Look up inhibition in vivo at 10 mg/kg: O=C1CC2(CCN(Cc3ccc(F)cc3)CC2)Oc2ccccc21 [Compound 4610282]
Reply | 24

###

Format: in vivo, rats
assayConditions: 30 mg/kg p.o., one hour before aconitine
Procedure: These experiments were carried out on rats (with a body weight of 180-200 g) anaesthetized by urethane (1.25 g/kg i.p.) in such a way that 50 μg/kg of aconitine [chemically acetyl benzoyl aconine] was injected to the tail vein then, the arrhythmic disturbances were observed on ERG II lead after 5 minutes [J. Med. Exp. 10, 93 (1964)]. The compounds to be tested for antiarrhythmic effect were intravenously (i.v.) administered 2 minutes, or orally one hour before aconitine. […]
quantityMeasured: Inhibition (%)

Look over these answered cases.
O=C1CC2(CCN(Cc3ccccc3)CC2)Oc2ccccc21; 0%
O=C1CC2(CCN(Cc3ccc(Cl)cc3)CC2)Oc2ccccc21; 5%
CC(C)(C)c1ccc(CN2CCC3(CC2)CC(=O)c2ccccc2O3)cc1; 0%
O=C1CC2(CC[N+](Cc3ccccc3)(Cc3ccccc3)CC2)Oc2ccccc21; 0%

# next molecule below
Ask | Look up Inhibition (%): `O=C1CC2(CC[N+](Cc3ccc([N+](=O)[O-])cc3)(Cc3ccc([N+](=O)[O-])cc3)CC2)Oc2ccccc21`
Reply | 0%

###

Tested on: neuronal calcium uptake (veratrine-induced)
experimentalProtocol: Veratrine-induced 45Ca uptake by synaptosome preparation
Assay type: biochemical
Protocol: Compound 4610351 has been investigated in detail both under in vitro and in vivo conditions. This compound evened 36% protection in an oral dose of 10 mg/kg in the normobaric hypoxia-induced memory deficiency model on rats; this surpassed the protective effect of 21% provided by 10 mg/kg oral dose of vinpocetine. […]
quantityMeasured: pIC50
pIC50 field: float, defined as -log10 of concentration (mol/L).

Ask | Short answer please: pIC50, neuronal calcium uptake (veratrine-induced), entry `O=C1CC2(CCN(Cc3ccc(Cl)cc3)CC2)Oc2ccccc21`
Reply | 5.35

###

Tested on: neuronal calcium uptake (K^+ -induced)
experimentalProtocol: K+ -induced 45Ca uptake by synaptosome preparation
Type: biochemical
quantityMeasured: IC50

Ask | Look up IC50: `O=C1CC2(CCN(Cc3ccc(Cl)cc3)CC2)Oc2ccccc21`
Reply | 45.6 µM

###

Type: in vivo, rats
assayConditions: i.v.
Where a name gives a salt, the structure may show the parent alone.
quantityMeasured: ED50 (mg/kg)
Just the number in mg/kg, nothing appended.

Look over these answered cases.
CCN1C[C@H]2CN(C)C[C@@H](C1)C2OC(=O)c1ccc(Cl)cc1 (stereo partly shown) [Bisaramil, hydrochloride]; 0.49
C=C[C@H]1C[N@@]2CC[C@H]1C[C@@H]2[C@@H](O)c1ccnc2ccc(OC)cc12; 6.66
CCCCc1oc2ccccc2c1C(=O)c1cc(I)c(OCCN(CC)CC)c(I)c1; 7.04

# next molecule below
Ask | Look up ED50: Cc1cccc(C)c1OCC(C)N (stereo not shown)
Reply | 2.51
